Just for reference, paper PMC4723301 is where these values come from.

assay: Albumin secretion in efflux media of SQL-SAL devices; details: human
readout: half-life at 180 μM

Param item = Cc1c(C)c2c(c(C)c1O)CCC(C)(COc1ccc(CC3SC(=O)NC3=O)cc1)O2 (stereo not shown) ; retrieve measured half-life at 180 μM.
~72 h
